TESTED_ON: human MOR (Homo sapiens)
Sequence (P35372 whole entry): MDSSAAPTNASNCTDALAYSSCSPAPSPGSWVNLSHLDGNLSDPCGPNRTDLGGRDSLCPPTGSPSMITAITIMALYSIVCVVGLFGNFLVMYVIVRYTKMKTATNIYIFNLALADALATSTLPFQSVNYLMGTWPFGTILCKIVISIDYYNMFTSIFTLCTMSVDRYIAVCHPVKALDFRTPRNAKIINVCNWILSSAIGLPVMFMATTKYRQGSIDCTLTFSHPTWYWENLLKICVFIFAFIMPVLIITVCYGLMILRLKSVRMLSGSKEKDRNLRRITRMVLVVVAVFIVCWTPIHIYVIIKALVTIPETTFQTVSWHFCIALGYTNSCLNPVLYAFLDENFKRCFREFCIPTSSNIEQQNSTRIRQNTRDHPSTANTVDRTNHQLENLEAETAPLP
MEASUREMENT_DESCRIPTION: Radioligand binding assay, displacement of [3H]DAMGO from CHO cell membranes
REPORTED_CONDITIONS: read-out: Ki (±SEM) MOR
READOUT: Ki

> print(dat)
                                   molecule                 tested.on  measured
1  CN(C)CC1CCc2ccccc2C1(O)c1cccc(O)c1 (stereo not shown)  human MOR (Homo sapiens)   > 10 µM
